// data source = patent EP3744729B1

Known Collagen I in the dermis Test 1 of a selection of compounds
Test system: normal human dermal fibroblasts (NHF)
Experiment: ELISA test on normal human dermal fibroblasts (NHF): macromolecules in culture supernatant
Assay type: cell-based
Details: Table 7; % difference compared to the control; 6 ppm
Where a SMILES comes first, the peptide text is derived from it. [ ]: non-standard residue; d: D form. The star is where a group is joined. Met(O2) = CS(=O)(=O)CC[C@H](N)C(=O)O; Palmitoyl = CCCCCCCCCCCCCCCC(=O)*
Attribute Measured: Collagen I in the dermis Test 1

{"Compound": "CCCCCCCCCCCCCCCC(=O)N[C@@H](CCCCN)C(=O)N[C@H](C(=O)N[C@@H](CCS(C)(=O)=O)C(=O)N[C@@H](CCCCN)C(=O)O)[C@@H](C)O [Pal-K-T-MO2-K-OH] (Palmitoyl-KT[Met(O2)]K-OH)", "Attribute Measured": "Collagen I in the dermis Test 1", "Experimental Value": "+161%"}
{"Compound": "CCCCCCCCCCCCCCCC(=O)N[C@@H](CCCCN)C(=O)N[C@H](C(=O)N[C@@H](Cc1ccccc1)C(=O)N[C@@H](CCS(C)(=O)=O)C(N)=O)[C@@H](C)O [Pal-K-T-F-MO2-NH2] (Palmitoyl-KTF[Met(O2)]-NH2)", "Attribute Measured": "Collagen I in the dermis Test 1", "Experimental Value": "+121%"}
{"Compound": "CCCCCCCCCCCCCCCC(=O)N[C@@H](CCCCN)C(=O)NCCCCC(=O)N[C@@H](CCCCN)C(=O)O [Pal-K-Ava-K-OH, reference compound]", "Attribute Measured": "Collagen I in the dermis Test 1", "Experimental Value": "+175%"}
{"Compound": "CCCCCCCCCCCCCCCC(=O)N[C@@H](CCS(C)(=O)=O)C(=O)N[C@H](C(=O)N[C@@H](Cc1ccccc1)C(=O)N[C@@H](CCCCN)C(=O)O)[C@@H](C)O [Pal-MO2-T-F-K-OH] (Palmitoyl-[Met(O2)]TFK-OH)", "Attribute Measured": "Collagen I in the dermis Test 1", "Experimental Value": "+148%"}
